Target: T1, soluble recombinant human DEC-205 fusion protein (DEC-205 extracellular domain comprising all ten … (human))
T1 chain: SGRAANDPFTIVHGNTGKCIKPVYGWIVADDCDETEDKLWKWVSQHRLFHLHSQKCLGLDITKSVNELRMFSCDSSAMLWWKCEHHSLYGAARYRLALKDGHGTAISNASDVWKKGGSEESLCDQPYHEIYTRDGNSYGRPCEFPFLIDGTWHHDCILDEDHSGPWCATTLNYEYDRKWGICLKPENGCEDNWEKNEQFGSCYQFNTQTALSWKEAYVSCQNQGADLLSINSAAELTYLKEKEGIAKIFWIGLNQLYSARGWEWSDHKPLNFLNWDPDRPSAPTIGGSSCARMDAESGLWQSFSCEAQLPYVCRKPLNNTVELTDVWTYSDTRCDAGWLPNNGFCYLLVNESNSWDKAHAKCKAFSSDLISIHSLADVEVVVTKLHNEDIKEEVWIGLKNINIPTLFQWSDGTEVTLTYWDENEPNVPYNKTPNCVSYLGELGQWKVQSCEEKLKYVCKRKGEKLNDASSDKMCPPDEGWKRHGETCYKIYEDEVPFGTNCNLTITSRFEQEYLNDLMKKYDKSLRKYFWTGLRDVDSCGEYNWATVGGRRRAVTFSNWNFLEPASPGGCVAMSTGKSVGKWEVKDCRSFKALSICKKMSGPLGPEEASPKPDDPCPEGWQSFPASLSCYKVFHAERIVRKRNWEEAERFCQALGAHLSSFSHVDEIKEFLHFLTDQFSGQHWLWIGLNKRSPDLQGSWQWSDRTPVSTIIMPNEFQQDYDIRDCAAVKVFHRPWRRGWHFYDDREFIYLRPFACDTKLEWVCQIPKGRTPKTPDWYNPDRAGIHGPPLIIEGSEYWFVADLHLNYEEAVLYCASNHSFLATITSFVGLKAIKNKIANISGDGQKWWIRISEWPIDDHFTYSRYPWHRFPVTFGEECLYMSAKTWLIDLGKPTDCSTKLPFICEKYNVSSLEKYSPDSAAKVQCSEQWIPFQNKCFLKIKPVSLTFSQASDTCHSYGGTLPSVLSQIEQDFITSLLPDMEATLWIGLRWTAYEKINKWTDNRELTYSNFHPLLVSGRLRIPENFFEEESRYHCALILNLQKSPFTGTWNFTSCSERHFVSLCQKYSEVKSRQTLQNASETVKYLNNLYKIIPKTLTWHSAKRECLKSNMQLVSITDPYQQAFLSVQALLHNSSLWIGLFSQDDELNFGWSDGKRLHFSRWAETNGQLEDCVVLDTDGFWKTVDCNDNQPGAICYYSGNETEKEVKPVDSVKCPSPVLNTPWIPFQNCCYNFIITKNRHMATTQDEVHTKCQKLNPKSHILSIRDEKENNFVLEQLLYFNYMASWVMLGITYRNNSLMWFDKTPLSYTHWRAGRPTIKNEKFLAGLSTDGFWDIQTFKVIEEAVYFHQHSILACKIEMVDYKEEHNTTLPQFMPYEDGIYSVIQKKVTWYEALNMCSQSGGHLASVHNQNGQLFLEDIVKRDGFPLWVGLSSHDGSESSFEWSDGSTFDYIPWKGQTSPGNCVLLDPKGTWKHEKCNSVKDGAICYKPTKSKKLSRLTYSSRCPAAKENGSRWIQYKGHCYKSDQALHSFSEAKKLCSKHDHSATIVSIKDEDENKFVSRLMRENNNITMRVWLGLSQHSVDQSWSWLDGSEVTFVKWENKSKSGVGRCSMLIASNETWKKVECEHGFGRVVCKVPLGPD
Assay: SPR (Biacore 2000), DEC-205 fusion protein amine-coupled to CM5 chip, antibody flowed, 1:1 Langmuir fit, mean of two series
measured-endpoint: koff
Report field: quantity (unit follows the number).

Specify koff for human anti-DEC-205 monoclonal antibody 3D6-2F4 (antibody, V domains shown, also called mAb #5) VH: QVQLVESGGGVVQPGRSLRLSCAASGFIFSIYGMHWVRQAPGKGLEWVAVIWYDGSNKYYADSVKGRFTISRDNSKNTLYLQMNSLRAEDTAVYYCARAPHFDYWGQGTLVTVSS VL: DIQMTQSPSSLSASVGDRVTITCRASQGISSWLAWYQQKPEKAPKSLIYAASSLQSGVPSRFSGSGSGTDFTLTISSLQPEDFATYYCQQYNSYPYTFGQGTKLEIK and stop.
0.00012 s⁻¹

Specify koff for human anti-DEC-205 monoclonal antibody 3G9-2D2 (antibody, V domains shown) VH: QVQLVESGGGVVQPGRSLRLSCAASGFTFSNYGMYWVRQAPGKGLEWVAVIWYDGSNKYYADSVKGRFTISRDNSKNTLYLQMNSLRAEDTAVYYCARDLWGWYFDYWGQGTLVTVSS VL: EIVLTQSPATLSLSPGERATLSCRASQSVSSYLAWYQQKPGQAPRLLIYDASNRATGIPARFSGSGSGTDFTLTISSLEPEDFAVYYCQQRRNWPLTFGGGTKVEIK and stop.
0.00019 s⁻¹

Specify koff for human anti-DEC-205 monoclonal antibody 5A8-1F1 (antibody, V domains shown) VH: QVQLVESGGGVVQPGRSLRLSCAASGFTFSTYGMHWVRQAPGKGLEWVAIIWYDGGNKYYADSVKGRFTISRDNSKNTLYLQMNSLRAEDTAVYYCARDFYWYFDLWGRGTLVTVSS VL: EIVLTQSPATLSLSPGERATLSCRASQSVSSYLAWYQQKPGQAPRLLIYDASNRATGIPARFSGSGSGTDFTLTISSLEPEDFAVYYCQQRRTFGQGTKVEIK and stop.
0.0002 s⁻¹

Specify koff for human anti-DEC-205 monoclonal antibody 3C7-3A3 (antibody, V domains shown) VH: QVQLVESGGGVVQPGRSLRLSCAASGFTFSSYNMHWVRQAPGKGLEWVAFIWYDGSNKYYGDSVKGRFTISRDNSKNTLYLQMNSLRAEDTAVYYCAREELGIGWYFDLWGRGTLVTVSS VL: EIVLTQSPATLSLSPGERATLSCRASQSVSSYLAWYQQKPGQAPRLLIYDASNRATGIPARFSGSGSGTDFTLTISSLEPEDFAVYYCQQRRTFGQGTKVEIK and stop.
0.00076 s⁻¹
